target: Glycogen synthase kinase-3 alpha (Homo sapiens); experiment: concentration-response blocking of human GSK3A – biochemical, luminescence, cell-free homogeneous, retest, dose response (AID 463203); conditions: GSK-3 alpha enzyme, ADP-Glo luminescence, 60 min
Calls of active or inactive are those of the source.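 Rule for the calls: active = more than half of replicate measurements showing over 20% loss of kinase signal relative to plate controls; inconclusive = some but at most half of replicates over 20% loss; inactive = no replicate over 20% signal loss.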
# output must be one of active, inactive

Before answering, review these 5 worked examples.
>>> categorylabel("S=C(Nc1ccc(Nc2ccccc2)cc1)Nc1ccccn1")
"inactive"
>>> categorylabel("O=C(Nc1cccc(-c2nc3cccnc3s2)c1)c1cccnc1Cl")
"active"
>>> categorylabel("CC1(C)CC(=O)C2=C(C1)Nc1nc(SCCN3CCOCC3)[nH]c(=O)c1C2c1cccs1 (stereo unspecified)")
"inactive"
>>> categorylabel("COc1ccc(Cl)cc1Nc1nc(N)c2ccccc2n1")
"inactive"
>>> categorylabel("COc1ccc(-c2cn3cccnc3n2)cc1NC(=O)C1CC1")
"inactive"

Note: attention shifts to another entry.
Asked: Could you please tell me the result logged for `Nc1nonc1-n1nnc(C(=O)N/N=C/c2ccc(F)cc2)c1-c1cccs1` in this assay?
Given back: active

====

molecular target: Glycogen synthase kinase-3 alpha (Homo sapiens); assay: concentration-response blocking of human GSK3A – biochemical, luminescence, cell-free homogeneous, retest, dose response (AID 463203); conditions: GSK-3 alpha enzyme, ADP-Glo luminescence, 60 min
The source made the active and inactive calls.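 Rule for the calls: active = more than half of replicate measurements showing over 20% loss of kinase signal relative to plate controls; inconclusive = some but at most half of replicates over 20% loss; inactive = no replicate over 20% signal loss.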
# output must be one of 1.0 (active), 0.0 (inactive)

Before answering, review these 8 worked examples.
>>> categorylabel("COc1ccc(NC(=O)Nc2ccc(F)cc2F)c(C)c1")
0.0
>>> categorylabel("CCCCOc1ccc(-c2nnc(N)s2)cc1")
0.0
>>> categorylabel("CS(=O)(=O)N1CCN(c2ccccc2NC(=O)c2ccc(Br)o2)CC1")
1.0
>>> categorylabel("COc1ccc(NC(=O)c2nnn(Cc3ccc(SC)cc3)c2N)c(OC)c1")
0.0
>>> categorylabel("O=C(O)c1ccc(Nc2nc(-c3cccnc3)nc3ccccc23)cc1")
1.0
>>> categorylabel("C=CCNC(=S)N/N=C(\\C)c1ccc(OC)cc1")
0.0
>>> categorylabel("COC(=O)c1sc2nc(N3CCCCC3)c3c(c2c1N)CCCC3")
0.0
>>> categorylabel("N#C/C(=C/Nc1ccccc1)c1ccsc1")
0.0

Asked: Could you please tell me the result logged for `c1ccc2c3c([nH]c2c1)-c1[nH]ncc1CC3` in this assay?
Given back: 1.0

Asked: Could you please tell me the result logged for `Cc1ccc(/C=N/NC(=O)c2nnn(-c3nonc3N)c2CN(C)C)s1` in this assay?
Given back: 0.0

Asked: Could you please tell me the result logged for `CCOC(=O)c1cc(-c2ccc(F)cc2)n(CC(=O)NCc2cccnc2)c1C` in this assay?
Given back: 0.0

Asked: Could you please tell me the result logged for `Cc1cccc2c(N=Nc3ccccc3)c(O)[nH]c12` in this assay?
Given back: 0.0

Asked: Could you please tell me the result logged for `Cc1c(C(=O)N/N=C/c2ccc(O)c(Br)c2)sc(N)c1C#N` in this assay?
Given back: 1.0

====

molecular target: Glycogen synthase kinase-3 alpha (Homo sapiens); test: concentration-response blocking of human GSK3A – biochemical, luminescence, cell-free homogeneous, retest, dose response (AID 463203); conditions: GSK-3 alpha enzyme, ADP-Glo luminescence, 60 min
The source made the active and inactive calls.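 How the source made its calls: active means more than half of replicate measurements showing over 20% loss of kinase signal relative to plate controls; inconclusive means some but at most half of replicates over 20% loss; inactive means no replicate over 20% signal loss.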
# output must be one of active, inactive

>>> categorylabel("NCc1cccc(CNc2ccc([N+](=O)[O-])cc2C(N)=O)c1")
"active"
>>> categorylabel("O=C(Nc1ccsc1C(=O)O)c1ccc(Cl)cc1")
"inactive"
>>> categorylabel("O=C(Cn1c(NCCCO)nc2ccccc21)c1ccc([N+](=O)[O-])cc1")
"inactive"
>>> categorylabel("Clc1ccc(OCc2nnc(SCc3nnc(-c4ccccc4)o3)o2)c(Cl)c1")
"inactive"
>>> categorylabel("Cn1cc([N+](=O)[O-])c(C(=O)Nc2cnn(Cc3ccc(F)cc3)c2)n1")
"inactive"
>>> categorylabel("COc1ccc(/C=C2\\Oc3cc(OCC(=O)N4CCC[C@H]4C(=O)O)ccc3C2=O)cc1OC")
"inactive"
>>> categorylabel("COc1cc(/C=C/c2nc(N)nc(-c3ccccc3O)n2)cc(OC)c1OC")
"inactive"
>>> categorylabel("CCOC(=O)c1c(NC(=O)CN2C(=O)NC3(CCCCC3C)C2=O)sc(C(=O)N(C)C)c1C (stereo not drawn)")
"inactive"

Asked: Could you please tell me the result logged for `O=C(CSc1nc2ccccc2c(=O)n1-c1ccc(F)cc1F)c1c[nH]c2ccccc12` in this assay?
Given back: inactive

Asked: Could you please tell me the result logged for `Oc1cccc(Nc2c3ccccc3nc3ccccc23)c1` in this assay?
Given back: inactive

Asked: Could you please tell me the result logged for `CCOC(=O)N1CCC(NC(=O)CCc2nc(C3=CCN(C)CC3)no2)CC1` in this assay?
Given back: inactive

Asked: Could you please tell me the result logged for `O=C(Oc1cccc(NC(=O)c2ccco2)c1)c1cccc(S(=O)(=O)N2CCCCC2)c1` in this assay?
Given back: inactive

Asked: Could you please tell me the result logged for `COc1ccccc1C(=O)NNC(=O)c1cccc(Br)c1` in this assay?
Given back: inactive

Asked: Could you please tell me the result logged for `CCOC(=O)C1CCN(c2c(C(=O)c3ccccc3)cnc3ccc(Cl)cc23)CC1` in this assay?
Given back: inactive

====

target: Glycogen synthase kinase-3 alpha (Homo sapiens); assay: concentration-response blocking of human GSK3A – biochemical, luminescence, cell-free homogeneous, retest, dose response (AID 463203); conditions: GSK-3 alpha enzyme, ADP-Glo luminescence, 60 min
Calls of active or inactive are those of the source.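 Rule for the calls: active = more than half of replicate measurements showing over 20% loss of kinase signal relative to plate controls; inconclusive = some but at most half of replicates over 20% loss; inactive = no replicate over 20% signal loss.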
# output must be one of 1 (yes) (active), 0 (no) (inactive)

Before answering, review these 6 worked examples.
>>> categorylabel("Fc1ccccc1/C=N/Nc1cc(N2CCCCC2)ncn1")
"0 (no)"
>>> categorylabel("Nc1c(S(=O)(=O)c2ccccc2)nnn1-c1ccccc1")
"0 (no)"
>>> categorylabel("Cc1cccc(Nc2ncccc2C(=O)O)c1C")
"0 (no)"
>>> categorylabel("Cc1cccc(NC(=O)CSCC(=O)OCc2ccccn2)c1")
"0 (no)"
>>> categorylabel("NC(=O)c1ccsc1NC(=O)C1CCCCC1")
"0 (no)"
>>> categorylabel("COc1ccc(OC)c(C2CC(=O)N3CN(c4ccccc4)CSC3=C2C#N)c1 (centres undefined)")
"0 (no)"

Asked: Could you please tell me the result logged for `Nc1ccc2nc(C3CCCCC3)[nH]c2c1` in this assay?
Given back: 0 (no)

Asked: Could you please tell me the result logged for O=c1[nH]c2c(s1)C(c1ccc(O)cc1)C1C3CCC(C3)C1S2 (centres undefined) in this assay?
Given back: 1 (yes)

Asked: Could you please tell me the result logged for COc1ccc(OC)c(/C=C2\Oc3cc(OCC(=O)N4CC(O)C[C@H]4C(=O)O)ccc3C2=O)c1 (some centres undefined) in this assay?
Given back: 0 (no)

Asked: Could you please tell me the result logged for `Cc1ccc(C(=O)c2cnc3cc4c(cc3c2S(=O)(=O)c2ccccc2)OCCO4)cc1` in this assay?
Given back: 0 (no)

Asked: Could you please tell me the result logged for `CCOc1cccc(-c2c(C(=O)N/N=C(\C)c3ccccn3)nnn2-c2nonc2N)c1` in this assay?
Given back: 1 (yes)

Asked: Could you please tell me the result logged for `Cn1c(N=Nc2ccccc2)nc2ccccc21` in this assay?
Given back: 1 (yes)

Asked: Could you please tell me the result logged for `COc1ccc(Nc2cc(C)nc(N)n2)cc1` in this assay?
Given back: 0 (no)

Asked: Could you please tell me the result logged for `COc1ccc(/C=C(\C#N)C(=O)N=CN(C)C)cc1` in this assay?
Given back: 0 (no)

Asked: Could you please tell me the result logged for `CC(/C=N/NC(=O)c1nnn(-c2nonc2N)c1C(C)C)=C\c1ccco1` in this assay?
Given back: 0 (no)

Asked: Could you please tell me the result logged for COC(=O)C1=C(C)Nc2[nH]c(=S)[nH]c(=O)c2C1c1ccc(O)cc1 (centres undefined) in this assay?
Given back: 0 (no)

Asked: Could you please tell me the result logged for `FC(F)(F)COc1ccc(-c2nnc(SCc3c(Cl)cccc3Cl)o2)cn1` in this assay?
Given back: 0 (no)

====

# reported AC50; entries follow
molecular target: Glycogen synthase kinase-3 alpha (Homo sapiens) (UniProt P49840); assay: concentration-response blocking of human GSK3A – biochemical, luminescence, cell-free homogeneous, retest, dose response (AID 463203); conditions: GSK-3 alpha enzyme, ADP-Glo luminescence, 60 min
Sequence (P49840 whole entry, looked up): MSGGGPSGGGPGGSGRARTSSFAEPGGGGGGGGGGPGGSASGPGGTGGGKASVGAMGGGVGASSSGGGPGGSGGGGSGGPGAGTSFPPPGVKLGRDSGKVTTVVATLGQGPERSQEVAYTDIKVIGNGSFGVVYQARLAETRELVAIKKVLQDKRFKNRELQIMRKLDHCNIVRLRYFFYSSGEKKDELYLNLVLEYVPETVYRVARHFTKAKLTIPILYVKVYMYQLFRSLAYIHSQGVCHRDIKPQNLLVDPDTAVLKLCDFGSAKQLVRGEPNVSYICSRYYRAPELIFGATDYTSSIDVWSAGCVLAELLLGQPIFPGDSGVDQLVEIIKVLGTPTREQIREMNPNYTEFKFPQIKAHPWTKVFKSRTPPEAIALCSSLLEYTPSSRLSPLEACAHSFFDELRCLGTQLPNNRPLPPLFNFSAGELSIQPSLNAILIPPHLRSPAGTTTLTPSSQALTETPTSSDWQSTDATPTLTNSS
Active and inactive are the calls of the source.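 The calls were made as follows: active = more than half of replicate measurements showing over 20% loss of kinase signal relative to plate controls; inconclusive = some but at most half of replicates over 20% loss; inactive = no replicate over 20% signal loss.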

Below, each entry is followed by its recorded AC50 result.
>>> result("O=C1OCCC/C1=C\\c1ccc2c(c1)OCO2")
"23.3 µM"
>>> result("CCOc1ccc(-c2nnc(N)o2)cc1")
"> 30 µM (inactive)"
>>> result("CC1=C(C#N)c2nc(N)c(C#N)c(C)c2/C1=C\\c1ccc(OCC(=O)O)c(Cl)c1")
"20.4 µM"
>>> result("COc1cc(OC)cc(C(=O)O/N=C(\\N)c2ccccn2)c1")
"> 30 µM (inactive)"
>>> result("Brc1ccc(-c2nnc3ccc(Nc4ccccc4)nn23)cc1")
"> 30 µM (inactive)"

The record that follows has no AC50 shown yet.
Asked: Form field: reported AC50 of `CCCC(=O)Nc1cc(-c2cn3cccnc3n2)ccc1OC`
Given back: > 30 µM (inactive)
